Test system: U2OS
method: Multiplex assay against U2OS
Format: toxicity, cell-based
condition.description: human, 48 h, 10 µM, compound concentration 10 uM, replicate 1
property: Population Membrane Permeable-Phenotype (%)

> print(dat)
                                   compound  measured.target  unit.symbol  measurement
1  S=C(NCCCc1c[nH]cn1)NCCCN(Cc1ccc(Cl)c(Cl)c1)c1ccc(Br)cn1             U2OS            %           50
2  COc1cc(N2CCN(C)CC2)ccc1Nc1ncc2c(n1)N(C)c1ccccc1C(=O)N2C             U2OS            %           18
3  Cl.O=c1c2cccn2c2ccccc2n1CCCN1CCC(c2ccc(Cl)cc2)CC1             U2OS            %           84
4  CN1CCC(=C2c3ccccc3CC(=O)c3sccc32)CC1.O=C(O)/C=C/C(=O)O [KETOTIFEN FUMARATE]             U2OS            %            9
5  Cl.O=C(c1ccc(Nc2nccc(-c3cc4ccccc4s3)n2)cc1)N1CCC(N2CCCC2)CC1             U2OS            %           75

----------
Test system: HEK-293T
method: Incucyte cell viability with HEK293T; further: filed as whole numbers so only -1 and 0 and 1 occur
Assay type: toxicity, cell-based
condition.description: human, 12 h, 10 µM, compound concentration 10 uM, replicate number 1, timepoint 12 hours
A collection of molecules and their measured Growth Rate
property: Growth Rate

> print(dat)
                                   molecule  measurement
1  CCCCN(CCCC)C(=O)CN1C[C@H](c2cc(OC)c3c(c2)OCO3)[C@@H](C(=O)O)[C@@H]1CC(C)(C)CCC.Cc1ccc(S(=O)(=O)O)cc1            1
2  CCCCCCCCCCCCCCCCOC[C@H](COP(=O)([O-])OCC[N+](C)(C)C)OC(C)=O            1
3  Cc1cc(C)c(S(=O)(=O)N(Cc2ccc(-c3cccc(S(C)(=O)=O)c3)cc2)Cc2ccc(C(F)(F)F)o2)c(C)c1            0
4  O=C1NCN(c2ccccc2)C12CCN(CC1COc3ccccc3O1)CC2 (centres undefined)            0

----------
In this section we review reported Total Cell Count values for a set of compounds.
System: U2OS
method: Multiplex assay against U2OS
Type: toxicity, cell-based
condition.description: human, 24 h, 1 µM, compound concentration 1 uM, replicate 2
property: Total Cell Count

> print(dat)
                                   compound  measured.target  measurement
1  CN1CCC(=C2c3ccccc3CC(=O)c3sccc32)CC1.O=C(O)/C=C/C(=O)O [KETOTIFEN FUMARATE]             U2OS           64
2  Cc1cn(-c2cc(NC(=O)c3ccc(C)c(Nc4nccc(-c5cccnc5)n4)c3)cc(C(F)(F)F)c2)cn1             U2OS           67
3  CCCS(=O)(=O)Nc1ccc(F)c(C(=O)c2c[nH]c3ncc(Cl)cc23)c1F             U2OS          198
4  CCNc1cc(N[C@H]2CC[C@H](O)CC2)nc(Nc2ccc3c(ccn3Cc3ccccc3)c2)n1             U2OS          132
5  O=C(Nc1ccc(-n2nc(-c3cccnc3)cc2C(F)(F)F)cn1)c1ccc(-c2ccccc2)c(F)c1             U2OS           96
6  Cn1nc(C(F)(F)F)cc1-c1cnc(N2CCc3cc(S(=O)(=O)Nc4c(F)cc(Cl)cc4F)cc(N4CCCC4=O)c32)nc1             U2OS          163
7  CCN1CCN(c2ccc(Nc3cc(N(C)C(=O)Nc4c(Cl)c(OC)cc(OC)c4Cl)ncn3)cc2)CC1             U2OS          151
8  Cl.O=c1c2cccn2c2ccccc2n1CCCN1CCC(c2ccc(Cl)cc2)CC1             U2OS          147
